Target: human NaP2b (SLC34A2) (Homo sapiens, UniProt O95436)
Construct: host or cells: HEK293
Sequence (O95436 1-690): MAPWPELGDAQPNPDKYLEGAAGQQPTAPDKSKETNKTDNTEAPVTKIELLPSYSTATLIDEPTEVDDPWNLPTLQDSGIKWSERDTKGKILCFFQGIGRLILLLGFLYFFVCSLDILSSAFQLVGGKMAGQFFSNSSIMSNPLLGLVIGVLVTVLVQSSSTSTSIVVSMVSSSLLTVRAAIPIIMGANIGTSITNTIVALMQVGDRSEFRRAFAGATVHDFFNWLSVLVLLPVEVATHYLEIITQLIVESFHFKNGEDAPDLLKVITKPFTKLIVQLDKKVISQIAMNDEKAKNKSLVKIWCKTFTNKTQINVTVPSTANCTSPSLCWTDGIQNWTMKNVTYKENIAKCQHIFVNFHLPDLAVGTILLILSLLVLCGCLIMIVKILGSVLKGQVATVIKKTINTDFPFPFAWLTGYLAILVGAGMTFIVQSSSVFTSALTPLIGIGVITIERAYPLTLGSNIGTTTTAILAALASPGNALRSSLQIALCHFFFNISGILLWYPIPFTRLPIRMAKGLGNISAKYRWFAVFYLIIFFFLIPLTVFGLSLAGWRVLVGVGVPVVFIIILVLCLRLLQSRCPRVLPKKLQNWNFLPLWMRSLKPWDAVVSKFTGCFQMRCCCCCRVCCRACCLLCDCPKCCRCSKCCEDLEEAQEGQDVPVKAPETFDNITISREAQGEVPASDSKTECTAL
Assay: Inhibition of NaP2b-mediated Pi (33P) uptake in transfected HEK293 cells, human NaP2b
Type: cell-based
Settings: HEK293 cells transfected with human NaP2b, 100 uM phosphate, 0.1 nM to 30 uM, read-out: pIC50 range for human NaP2b (converted)
Experimental: HEK293 cells were obtained from the American Type Culture collection and propagated per their instructions. […] After incubation for 3-30 minutes at room temperature, assay mixtures were removed, and the cells were washed twice with ice cold stop solution (137 mM sodium chloride, 14 mM Tris, pH 7.4). Cells were lysed by addition of 20 μL 0.1% Tween 80 followed by 100 μL scintillation fluid, and counted using a TopCount (Perkin Elmer). […]
Item-by-item account of IC50

Solved cases (2 shown):
{"Molecule": "O=C(O)CCOCCOCCOCCOCCCc1cccc(C(=O)Nc2ccc(OC3CCC3)cc2-c2cc(C(=O)N[C@H]3CCCc4ccccc43)ccn2)c1 [Example 285]", "IC50": "< 1 µM"}
{"Molecule": "CCN(CC)c1ccc(NC(=O)c2cccc(CS(=O)(=O)CCOCCOCCOCCOCCC(=O)O)c2)c(-c2cc(C(=O)NCc3cccc(C(F)(F)F)c3)ccn2)c1 [Example 167]", "IC50": "10 to 31.6 µM"}

// CCN(CC)c1ccc(NC(=O)c2cccc(COCCOCCOCCOCCOCCOCCOC(=O)NCCOCCOCCOCCOCCOCCOCCOC)c2)c(-c2cc(C(=O)NCc3cccc(C(F)(F)F)c3)ccn2)c1 [Example 174] : IC50 value = < 1 µM

Data point: CCN(CC)c1ccc(NC(=O)c2cccc(C(=O)N(C)CCN3CCN(C(=O)N(C)CCOCCOCCOCCC(=O)N(C)C[C@H](O)[C@@H](O)[C@H](O)[C@H](O)CO)CC3)c2)c(-c2cc(C(=O)N[C@H]3CCCc4ccccc43)ccn2)c1 [Example 232] ; IC50 = 10 to 31.6 µM

IC50 for CCN(CC)c1ccc(NC(=O)c2cccc(CCCOCCOCCOCCOCCNS(=O)(=O)c3ccc(CCC(=O)NCCOCCOCCOCCOCCOCCOCCOC)cc3)c2)c(-c2cc(C(=O)NCc3cccc(C(F)(F)F)c3)ccn2)c1 [Example 296] is 1 to 7.94 µM
